The measured values listed here are drawn from patent US20250354195A1.

# targetOrSystem: GSK3β (Homo sapiens, UniProt P49841+Q96SW2)
# Construct: genetically engineered using CRISPR/Cas9 technology to endogenously tag GSK3p protein with HiBiT tag at the C-terminus; host or cells: HEK293 cells, CRISPR/Cas9 knock-in of HiBiT at the endogenous GSK3B locus
# Sequence (P49841 whole entry): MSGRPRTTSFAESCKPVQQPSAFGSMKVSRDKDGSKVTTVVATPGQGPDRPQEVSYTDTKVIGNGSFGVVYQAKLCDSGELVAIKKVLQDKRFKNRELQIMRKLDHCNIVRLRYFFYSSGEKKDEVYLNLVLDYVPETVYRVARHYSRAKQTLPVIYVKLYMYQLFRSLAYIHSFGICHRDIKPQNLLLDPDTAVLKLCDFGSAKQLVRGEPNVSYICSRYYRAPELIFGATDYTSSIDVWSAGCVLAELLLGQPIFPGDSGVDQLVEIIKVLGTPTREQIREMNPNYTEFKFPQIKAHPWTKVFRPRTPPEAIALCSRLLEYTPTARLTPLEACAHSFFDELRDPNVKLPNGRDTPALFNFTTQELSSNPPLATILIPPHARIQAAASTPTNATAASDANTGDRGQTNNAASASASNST
# Sequence (Q96SW2 whole entry): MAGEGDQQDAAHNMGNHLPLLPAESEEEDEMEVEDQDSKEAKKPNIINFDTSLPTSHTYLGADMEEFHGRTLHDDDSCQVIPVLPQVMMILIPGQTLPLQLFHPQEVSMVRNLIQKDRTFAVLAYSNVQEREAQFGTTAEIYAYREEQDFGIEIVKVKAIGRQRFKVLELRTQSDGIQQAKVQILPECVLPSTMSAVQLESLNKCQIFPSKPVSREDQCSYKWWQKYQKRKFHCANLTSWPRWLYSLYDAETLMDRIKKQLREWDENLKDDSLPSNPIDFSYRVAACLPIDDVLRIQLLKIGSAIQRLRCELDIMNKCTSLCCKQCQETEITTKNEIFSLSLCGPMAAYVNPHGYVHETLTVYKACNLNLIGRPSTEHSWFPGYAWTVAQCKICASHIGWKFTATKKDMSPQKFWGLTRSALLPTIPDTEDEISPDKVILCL
# Sequence (Q16531 whole entry partner): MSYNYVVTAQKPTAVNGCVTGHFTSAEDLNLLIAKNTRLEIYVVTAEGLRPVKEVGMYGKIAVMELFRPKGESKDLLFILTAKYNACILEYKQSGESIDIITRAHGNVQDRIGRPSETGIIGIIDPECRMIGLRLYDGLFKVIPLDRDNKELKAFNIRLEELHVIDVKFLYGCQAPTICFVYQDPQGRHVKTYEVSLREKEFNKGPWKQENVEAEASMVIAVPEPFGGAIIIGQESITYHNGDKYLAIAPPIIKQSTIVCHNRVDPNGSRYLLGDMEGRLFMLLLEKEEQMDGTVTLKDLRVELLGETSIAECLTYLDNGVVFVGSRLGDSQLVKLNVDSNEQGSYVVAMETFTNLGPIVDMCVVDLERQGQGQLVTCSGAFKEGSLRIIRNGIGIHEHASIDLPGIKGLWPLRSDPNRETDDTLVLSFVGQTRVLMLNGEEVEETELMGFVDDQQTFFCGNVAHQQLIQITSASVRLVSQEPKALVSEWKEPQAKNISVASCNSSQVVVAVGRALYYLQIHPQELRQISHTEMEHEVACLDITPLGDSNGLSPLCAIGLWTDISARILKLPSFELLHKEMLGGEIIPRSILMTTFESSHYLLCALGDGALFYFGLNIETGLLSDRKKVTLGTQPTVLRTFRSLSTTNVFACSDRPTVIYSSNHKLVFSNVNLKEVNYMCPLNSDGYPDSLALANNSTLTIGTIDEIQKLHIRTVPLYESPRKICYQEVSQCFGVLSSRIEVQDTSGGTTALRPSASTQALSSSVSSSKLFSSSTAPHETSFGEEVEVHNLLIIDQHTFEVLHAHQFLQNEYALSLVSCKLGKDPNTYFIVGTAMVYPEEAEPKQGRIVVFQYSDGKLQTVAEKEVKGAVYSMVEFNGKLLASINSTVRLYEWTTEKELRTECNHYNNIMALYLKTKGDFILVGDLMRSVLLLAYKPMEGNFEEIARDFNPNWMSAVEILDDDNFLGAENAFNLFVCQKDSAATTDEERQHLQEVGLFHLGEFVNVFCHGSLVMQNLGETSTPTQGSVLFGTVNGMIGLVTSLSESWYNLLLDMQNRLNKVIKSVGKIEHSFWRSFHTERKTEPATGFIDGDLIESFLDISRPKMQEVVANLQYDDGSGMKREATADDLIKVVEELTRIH
# experimentalDetails: High throughput screening for GSK3β-HiBiT targeted degradation (Nano-Glo HiBiT Lytic luminescence)
# Type: cell-based
# particulars: HEK293 cells with endogenously HiBiT-tagged GSK3β, 24 h incubation; products of one-pot plate array (FIG. 1, Method A)

molecule: COc1ccc(-c2ocnc2C(=O)NCCCn2cc(-c3ccc(CN4CCN(Cc5ccc(N6CCC(=O)NC6=O)cc5)CC4)cn3)nn2)cc1Cl
Dmax (maximal effect): <30%

molecule: COc1ccc(-c2ocnc2C(=O)NCCCn2cc(-c3cccc(CN4CCN(CC(=O)N[C@H](C(=O)N5C[C@H](O)C[C@H]5C(=O)NCc5ccc(-c6scnc6C)cc5)C(C)(C)C)CC4)n3)nn2)cc1Cl
Dmax (maximal effect): <30%

molecule: COc1ccc(-c2ocnc2C(=O)NCCCn2cc(COc3ccc(CN4CC5(C4)CN(Cc4ccc(C(=O)NC6CCC(=O)NC6=O)c(F)c4)C5)cc3)nn2)cc1Cl (stereo not shown)
Dmax (maximal effect): 56%

molecule: COc1ccc(-c2ocnc2C(=O)NCCCn2cc(CCCCN3CCN(Cc4ccc(C(=O)NC5CCC(=O)NC5=O)nc4)CC3)nn2)cc1Cl (stereo not shown)
Dmax (maximal effect): <30%

molecule: COc1ccc(-c2ocnc2C(=O)NCCCn2cc(COCCOCCN3CCN(Cc4ccc(C(=O)NC5CCC(=O)NC5=O)nc4)CC3)nn2)cc1Cl (stereo not shown)
Dmax (maximal effect): <30%

molecule: COc1ccc(-c2ocnc2C(=O)NCCCn2cc(CCCCCN3CCN(Cc4cccc(N5CCC(=O)NC5=O)c4)CC3)nn2)cc1Cl
Dmax (maximal effect): <30%

molecule: COc1ccc(-c2ocnc2C(=O)NCCCn2cc(CCCCN3CCN(CC(=O)N[C@H](C(=O)N4C[C@H](O)C[C@H]4C(=O)NCc4ccc(-c5scnc5C)cc4)C(C)(C)C)CC3)nn2)cc1Cl
Dmax (maximal effect): <30%

----------
# targetOrSystem: GSK3β (Homo sapiens, UniProt P49841+Q96SW2)
# Construct: genetically engineered using CRISPR/Cas9 technology to endogenously tag GSK3p protein with HiBiT tag at the C-terminus; host or cells: HEK293 cells, CRISPR/Cas9 knock-in of HiBiT at the endogenous GSK3B locus
# experimentalDetails: High throughput screening for GSK3β-HiBiT targeted degradation (Nano-Glo HiBiT Lytic luminescence)
# Format: cell-based
# particulars: HEK293 cells with endogenously HiBiT-tagged GSK3β, 24 h incubation; products of one-pot plate array (FIG. 1, Method A)

molecule: COc1ccc(-c2ocnc2C(=O)NCCCn2cc(CCCCCN3CCN(Cc4ccc(C(=O)NC5CCC(=O)NC5=O)nc4)CC3)nn2)cc1Cl (stereo not drawn) [AHD2B-1-F7]
targetOrSystem: GSK3β (Homo sapiens, UniProt P49841+Q96SW2)
Dmax (maximal effect): <30%
--
molecule: COc1ccc(-c2ocnc2C(=O)NCCCn2cc(COc3ccc(CN4CCN(Cc5ccc(C(=O)NC6CCC(=O)NC6=O)nc5)CC4)cc3)nn2)cc1Cl (stereo not drawn) [AHD2B-1-F3]
targetOrSystem: GSK3β (Homo sapiens, UniProt P49841+Q96SW2)
Dmax (maximal effect): <30%
--
molecule: COc1ccc(-c2ocnc2C(=O)NCCCn2cc(CCCOc3ccc(CN4CCN(Cc5ccc(N6CCC(=O)NC6=O)cc5)CC4)cc3)nn2)cc1Cl [AHD2B-1-G4]
targetOrSystem: GSK3β (Homo sapiens, UniProt P49841+Q96SW2)
Dmax (maximal effect): <30%
--
molecule: COc1ccc(-c2ocnc2C(=O)NCCCn2cc(COC3CCN(Cc4ccc5c(N6CCC(=O)NC6=O)nn(C)c5c4)CC3)nn2)cc1Cl [AHD2B-1-D5]
targetOrSystem: GSK3β (Homo sapiens, UniProt P49841+Q96SW2)
Dmax (maximal effect): 35%
--
molecule: COc1ccc(-c2ocnc2C(=O)NCCCn2cc(-c3ccc(CN4CCN(Cc5ccc(C(=O)NC6CCC(=O)NC6=O)nc5)CC4)cn3)nn2)cc1Cl (stereo not drawn) [AHD2B-1-F2]
targetOrSystem: GSK3β (Homo sapiens, UniProt P49841+Q96SW2)
Dmax (maximal effect): <30%
--
molecule: COc1ccc(-c2ocnc2C(=O)NCCCn2cc(COC3CCN(Cc4ccc(C(=O)NC5CCC(=O)NC5=O)nc4)CC3)nn2)cc1Cl (stereo not drawn) [AHD2B-1-F5]
targetOrSystem: GSK3β (Homo sapiens, UniProt P49841+Q96SW2)
Dmax (maximal effect): <30%
